Experiment: in vitro
Format: cell-based
Settings: mouse
Response field label: string, one of yes (CC50 at 96 h strictly below 10 µM) or no.

Compound	Assigned class
Cc1ccc(CC(=O)c2ccc(Br)cc2OCCCCn2ccnc2)cc1Nc1nccc(-c2cccnc2)n1 [LS2/128]	no
Cc1ccc(CC(=O)c2cccc(OCCCCn3ccnc3)c2)cc1Nc1nccc(-c2cccnc2)n1 [LS2/97]	no
Cc1ccc(CC(=O)c2ccc(OCCCCn3ccnc3)c(Br)c2)cc1Nc1nccc(-c2cccnc2)n1 [LS2/89]	no
COc1cc(C(=O)Cc2ccc(C)c(Nc3nccc(-c4cccnc4)n3)c2)ccc1OCCCCn1ccnc1 [LS2/122]	yes
Cc1ccc(CC(=O)c2ccccc2OCCCCn2ccnc2)cc1Nc1nccc(-c2cccnc2)n1 [LS2/98]	no
COc1ccc(C(=O)Cc2ccc(C)c(Nc3nccc(-c4cccnc4)n3)c2)cc1OCCCCn1ccnc1 [LS2/116]	yes
